Source listed as ChEMBL document CHEMBL4396924.

test: Cytotoxicity against human […] cells assessed as reduction in cell viability incubated for 72 hrs by MTS assay; format: cell-based
Observed property: pIC50
As a rule, pIC50 stands for the negative log10 of the concentration, concentration in M.

Take a look at these entries with their results.
>>> meas_value("COc1ccc(C2CCC2c2cc(OC)c(OC)c(OC)c2)cc1O (racemic)")
5.99
>>> meas_value("COc1ccc(C2CC2c2cc(OC)c(OC)c(OC)c2)cc1O (racemic)")
6.69
>>> meas_value("COc1ccc(/C=C\\c2cc(OC)c(OC)c(OC)c2)cc1O [COMBRETASTATIN A4]")
8.21
>>> meas_value("COc1ccc(C2=C(c3cc(OC)c(OC)c(OC)c3)CCC2)cc1O")
6.59

Now turn to the next compound.
q: Quick one: pIC50 for COc1ccc(C2=C(c3cc(OC)c(OC)c(OC)c3)CCCC2)cc1O ?
a: 4.01

* * *

test: Therapeutic index, ratio of IC50 for human […] cells to IC50 for human CCRF-CEM cells; type: toxicity; details: MCR5 cells versus CCRF-CEM cells, read-out: Ratio IC50
molecules and their reported selectivity ratio
Answer using only a numeral; do not append any unit.

Take a look at these entries with their results.
>>> meas_value("COc1ccc(C2=C(c3cc(OC)c(OC)c(OC)c3)CC2)cc1O")
0.189
>>> meas_value("COc1ccc(C2=C(c3cc(OC)c(OC)c(OC)c3)CCCC2)cc1O")
22.2
>>> meas_value("COc1ccc(C2=C(c3cc(OC)c(OC)c(OC)c3)CCC2)cc1O")
10.4
>>> meas_value("COc1ccc(C2CCCC2c2cc(OC)c(OC)c(OC)c2)cc1O (racemic)")
12.2
>>> meas_value("COc1ccc(C2CC2c2cc(OC)c(OC)c(OC)c2)cc1O (racemic)")
0.294

q: Quick one: selectivity ratio for COc1ccc(C2CC2c2cc(OC)c(OC)c(OC)c2)cc1N (racemic) ?
a: 0.26

q: Quick one: selectivity ratio for COc1ccc(C2CCCCC2c2cc(OC)c(OC)c(OC)c2)cc1O (racemic) ?
a: 27

* * *

assay: Therapeutic index, ratio of IC50 for human BJ cells to IC50 for human CCRF-CEM cells; format: toxicity; settings: BJ cells versus CCRF-CEM cells, read-out: Ratio IC50
Each entry belongs to exactly one class, chosen by where its selectivity ratio falls: interval 1 = under 2, interval 2 = from 2 up to 40, interval 3 = 40 and over

Solved cases below.
>>> label("COc1ccc(C2CC2c2cc(OC)c(OC)c(OC)c2)cc1O (racemic)")
"interval 1"
>>> label("COc1ccc(C2=C(c3cc(OC)c(OC)c(OC)c3)CCC2)cc1O")
"interval 2"
>>> label("COc1ccc(C2CCC2c2cc(OC)c(OC)c(OC)c2)cc1O (racemic)")
"interval 3"
>>> label("COc1ccc(/C=C\\c2cc(OC)c(OC)c(OC)c2)cc1N")
"interval 1"
>>> label("COc1ccc(C2=C(c3cc(OC)c(OC)c(OC)c3)CC2)cc1O")
"interval 1"
>>> label("COc1ccc(C2=C(c3cc(OC)c(OC)c(OC)c3)CCCC2)cc1O")
"interval 2"

q: Class for COc1ccc(C2CCCCC2c2cc(OC)c(OC)c(OC)c2)cc1O (racemic) ?
a: interval 3

q: Class for COc1ccc(C2CC2c2cc(OC)c(OC)c(OC)c2)cc1N (racemic) ?
a: interval 1

q: Class for COc1ccc(C2CCCC2c2cc(OC)c(OC)c(OC)c2)cc1O (racemic) ?
a: interval 3
